IC50 values for CRBN-DDB1 (Homo sapiens, UniProt Q96SW2), compiled from several publications.

Examples from the recorded data:
>>> obs_value("CC(C)(C)OC(=O)NCCCCCCCCCc1ccc(Oc2cccc3c2C(=O)NC(=O)C3=O)cc1")
"30000 to 100000 nM"
>>> obs_value("O=c1[nH]c(=O)c2c(Br)cccc2o1")
"> 100000 nM"
>>> obs_value("O=C1CCC(c2c(F)cc(N3CC(NC(=O)Nc4ccc(-c5ccccn5)cc4)C3)cc2F)C(=O)N1 (stereo not shown)")
"≤ 100 nM"
>>> obs_value("CC(C)c1ccc(NC(=O)NCc2ccc3c(c2)C(=O)N(C2CCC(=O)NC2=O)C3)cc1 (stereo not shown)")
"373 nM"
>>> obs_value("O=C1CCC(c2c(F)cc(N3CC(CC(=O)Nc4cc(OC(F)(F)F)ccc4F)C3)cc2F)C(=O)N1 (stereo not shown)")
"100 to 1000 nM"

Each compound below has a recorded value; state its IC50.
1. Cc1ccc(F)cc1NC(=O)NCc1ccc2c(c1)C(=O)N(C1CCC(=O)NC1=O)C2 (stereo not shown)
2. CC(C)(O)c1cccc(NC(=O)NCc2ccc3c(c2)C(=O)N(C2CCC(=O)NC2=O)C3)c1 (stereo not shown)
3. O=C1CCC(c2c(F)cc(N3CC(OC(=O)NC4Cc5ccccc5C4)C3)cc2F)C(=O)N1 (stereo not shown)
4. Cc1c(Cl)cc(NC(=O)OC2CN(c3cc(F)c(C4CCC(=O)NC4=O)c(F)c3)C2)cc1C#N (stereo not shown)

[reply]
1: 441 nM; 2: 477 nM; 3: ≤ 100 nM; 4: 100 to 1000 nM

For each of the items listed, what is its IC50?
1. O=C1CCC(N2Cc3ccc(CNC(=O)NCC4CC4)cc3C2=O)C(=O)N1 (stereo not shown)
2. CC1(NC(=O)OC2CN(c3cc(F)c(C4CCC(=O)NC4=O)c(F)c3)C2)CCCCC1 (stereo not shown)
3. O=C1Cc2nccc(Oc3ccccc3)c2C(=O)N1
4. O=C1CCC(c2c(F)cc(N3CC(NC(=O)Cc4ccc(F)c(Cl)c4)C3)cc2F)C(=O)N1 (stereo not shown)

[reply]
1: 907 nM; 2: ≤ 100 nM; 3: > 100000 nM; 4: 100 to 1000 nM

List the reported IC50 of each compound below.
1. O=C1CCC(N2Cc3ccc(CNC(=O)Nc4cc[nH]n4)cc3C2=O)C(=O)N1 (stereo not shown)
2. Nc1ccccc1-c1ccc2c(c1)C(=O)NC(=O)C2
3. Cc1c(Cl)cc(NC(=O)NC2CN(c3cc(F)c(C4CCC(=O)NC4=O)c(F)c3)C2)cc1OCCN1CCOCC1 (stereo not shown)

[reply]
389 nM
30000 to 100000 nM
≤ 100 nM
